FYI, the data here is from the Human Domainome abundance scans (Beltran et al. 2025).

B1: Far upstream element-binding protein 1, residues 184 to 257; numbered along this chain, Q96AE4 (parent)
chain: GNAVQEIMIPASKAGLVIGKGGETIKQLQERAGVKMVMIQDGPQNTGADKPLRITGDPYKVQQAKEMVLELIRD

- Variants of: B1
- METHOD DESCRIPTION: abundance fitness (aPCA) (normalised: wild type 0, dead -1); higher = more abundant; growth selection in yeast, the domain comes from the species named
- CONDITIONS USED: Homo sapiens
Binning rule for recorded abundance fitness: bottom end: < -0.1; midrange: ≥ -0.1 and < -0.05; top end: ≥ -0.05

GNAVQEIMIPASKAGLVIGKGGETIKQLQERAGVKMVMIQDGPQNTGADKPLRITGDPYKVQQAKEMVLELISD [R73S]    top end

Query block: Form: Item = GNAVQEIMIPASKAGLVIGKGGYTIKQLQERAGVKMVMIQDGPQNTGADKPLRITGDPYKVQQAKEMVLELIRD [E23Y] ; Class = ?
Result block: midrange

Query block: Likewise for GNAVQEIMIPASKAGLVIGKGGETIKQLQERAGVKMVMIWDGPQNTGADKPLRITGDPYKVQQAKEMVLELIRD [Q40W] ?
Result block: midrange

Query block: Likewise for GNAVQEIMIPASKAGLVIGKGGETIKQLQERDGVKMVMIQDGPQNTGADKPLRITGDPYKVQQAKEMVLELIRD [A32D] ?
Result block: bottom end

Query block: Likewise for GNAVQEIMIPASKAGLVIGKGGETIKQAQERAGVKMVMIQDGPQNTGADKPLRITGDPYKVQQAKEMVLELIRD [L28A] ?
Result block: bottom end

Query block: Likewise for GNAVQEIMIPASKAGLVIGKGGETIKQLQERAGVKMVMIQDGPQNTGADKPLRITGDPYKVQQAKNMVLELIRD [E66N] ?
Result block: top end
